All figures here come from ChEMBL document CHEMBL1201862.

Biological target: Large T antigen (Simian virus 40, UniProt P03070);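 also: Confirmatory-stage PubChem screen for compounds that inhibit SV40 T antigen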
Sequence (P03070 whole entry): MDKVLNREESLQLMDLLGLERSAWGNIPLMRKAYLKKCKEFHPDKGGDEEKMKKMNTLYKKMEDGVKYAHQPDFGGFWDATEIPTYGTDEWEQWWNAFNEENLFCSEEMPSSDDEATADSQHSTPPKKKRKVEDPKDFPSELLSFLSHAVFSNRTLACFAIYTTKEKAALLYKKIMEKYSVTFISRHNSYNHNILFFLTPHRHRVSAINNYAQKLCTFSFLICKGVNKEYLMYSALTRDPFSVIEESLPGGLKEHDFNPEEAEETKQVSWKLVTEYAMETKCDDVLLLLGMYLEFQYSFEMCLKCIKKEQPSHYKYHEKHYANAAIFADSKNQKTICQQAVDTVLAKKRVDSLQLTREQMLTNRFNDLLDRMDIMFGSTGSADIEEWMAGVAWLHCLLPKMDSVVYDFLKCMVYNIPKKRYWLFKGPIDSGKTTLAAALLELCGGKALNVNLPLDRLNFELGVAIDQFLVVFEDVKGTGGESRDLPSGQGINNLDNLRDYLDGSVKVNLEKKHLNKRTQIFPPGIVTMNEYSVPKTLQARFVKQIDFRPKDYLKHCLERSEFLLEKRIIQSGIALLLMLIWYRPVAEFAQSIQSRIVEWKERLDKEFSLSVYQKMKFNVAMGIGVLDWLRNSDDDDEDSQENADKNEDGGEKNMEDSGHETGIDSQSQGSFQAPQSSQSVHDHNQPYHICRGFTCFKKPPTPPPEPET
Assay type: functional, Betapolyomavirus macacae
The source made the active and inactive calls.
Hi there, I'd appreciate the recorded IC50 for every entry that follows.

Sample `O=C(/C=C/c1ccc(O)c(O)c1)c1ccccc1O` — what was its IC50?
17.4 µM (active)

Sample O=C(CC1SC(=O)N(c2ccccc2)C1=O)Nc1cccc2ccccc12 (stereo not given) — what was its IC50?
70.4 µM (active)

Sample `O=c1[nH]sc2ccccc12` — what was its IC50?
32.3 µM (active)

Sample `Cc1ccc(-n2nnnc2C(Cl)(Cl)c2nnnn2-c2ccc(C)cc2)cc1` — what was its IC50?
11.1 µM (active)

Sample `CCOC(=O)c1ccc(S(=O)(=O)Nc2nc3cc(S(=O)(=O)NC4=NCCCCC4)ccc3s2)cc1` — what was its IC50?
33.4 µM (active)

Sample `CN(C)c1ccc(NC(=O)CN2CCN(CC(=O)Nc3ccc(F)cc3)CC2)cc1` — what was its IC50?
17.2 µM (active)

Sample O=C(Nc1ccccc1)c1nnsc1[S+]([O-])c1ccc(Cl)cc1 (stereo not given) — what was its IC50?
25 µM (active)

Sample `CC(C)Nc1ccc(Nc2ccccc2)cc1` — what was its IC50?
9.01 µM (active)

Sample `CNC(=O)c1ccc(-c2sc3nc(N4CCOCC4)c4c(c3c2N)CC(C)(C)OC4)o1` — what was its IC50?
2.6 µM (active)

Sample `COc1cc(/C=N/Nc2nc3ccccc3nc2O)ccc1O` — what was its IC50?
18 µM (active)
